Numbers sourced from paper PMC10384010.

# Assay procedure: Reversed-phase TLC on RP-2 silanized plates (Rf)
# Format: physicochemical
# Stated conditions: silica gel 60 RP-2 F254 silanized; water:methanol:acetonitrile 60:20:20, ammonium acetate pH 7.4
Readout label: RP (Rf from RP-2 TLC plate)

INSERT INTO assay_data (compound, reported) VALUES
  ('CCN1CCCC1CNC(=O)c1cc(S(N)(=O)=O)ccc1OC (stereo not shown) [sulpiride]', 0.85),
  ('Nc1ccc(O)c(C(=O)O)c1 [mesalazine]', 0.99),
  ('CN(C)CCCN1c2ccccc2Sc2ccc(Cl)cc21 [chlorpromazine]', 0.49),
  ('C=CCN1C[C@H](C(=O)N(CCCN(C)C)C(=O)NCC)C[C@@H]2c3cccc4[nH]cc(c34)C[C@H]21 [carbegoline]', 0.68);

Look up RP (Rf from RP-2 TLC plate): CCN(CC)C(=O)Nc1ccc(OCC(O)CNC(C)(C)C)c(C(C)=O)c1 (stereo not shown) [celiprolol]
0.75

Look up RP (Rf from RP-2 TLC plate): C[C@]12C=CC(=O)C=C1CC[C@@H]1[C@@H]2[C@@H](O)C[C@@]2(C)[C@H]1CC[C@]2(O)C(=O)CO [prednizolone]
0.87

Look up RP (Rf from RP-2 TLC plate): CC[C@H]1OC(=O)[C@H](C)[C@@H](O[C@H]2C[C@@](C)(OC)[C@@H](O)[C@H](C)O2)[C@H](C)[C@@H](O[C@@H]2O[C@H](C)C[C@H](N(C)C)[C@H]2O)[C@](C)(O)C[C@@H](C)CN(C)[C@H](C)[C@@H](O)[C@]1(C)O [azithromycin]
0.24

---

Form field: RP (Rf from RP-2 TLC plate) (one value per entry).
# Assay procedure: Reversed-phase TLC on RP-2 silanized plates (Rf)
# Type: physicochemical
# Stated conditions: silica gel 60 RP-2 F254 silanized; water:methanol:acetonitrile 60:20:20, ammonium acetate pH 7.4

Consider the worked cases shown below.
INSERT INTO assay_data (molecule, reported) VALUES
  ('CCC[C@H](N[C@@H](C)C(=O)N1[C@H](C(=O)O)C[C@@H]2CCCC[C@@H]21)C(=O)OCC', 0.57),
  ('CNC(=C[N+](=O)[O-])NCCSCc1ccc(CN(C)C)o1', 0.81),
  ('O=C1CN=C(c2ccccn2)c2cc(Br)ccc2N1', 0.83),
  ('CN1C(C(=O)Nc2ccccn2)=C(O)c2ccccc2S1(=O)=O', 0.58);

Look up RP (Rf from RP-2 TLC plate): CC[C@@H](C(N)=O)N1CCCC1=O
0.92

Look up RP (Rf from RP-2 TLC plate): CCOC(=O)C1=C(COCCN)NC(C)=C(C(=O)OC)C1c1ccccc1Cl (stereo not drawn)
0.61

Look up RP (Rf from RP-2 TLC plate): C[C@H]1COc2c(N3CCN(C)CC3)c(F)cc3c(=O)c(C(=O)O)cn1c23
0.27

Look up RP (Rf from RP-2 TLC plate): CC(C)(C)NC[C@H](O)COc1nsnc1N1CCOCC1
0.97

Look up RP (Rf from RP-2 TLC plate): CN(C)CCC=C1c2ccccc2CCc2ccccc21
0.67

Look up RP (Rf from RP-2 TLC plate): Oc1ncnc2[nH]ncc12
0.97

Look up RP (Rf from RP-2 TLC plate): CCCC(CCC)C(=O)O
0.04

Look up RP (Rf from RP-2 TLC plate): CC(C)NCC(O)COc1ccc(COCCOC(C)C)cc1 (stereo not drawn)
0.57

Look up RP (Rf from RP-2 TLC plate): O=C(O)C1N=C(c2ccccc2)c2cc(Cl)ccc2NC1=O (stereo not drawn) [clorazepate]
0.81

Look up RP (Rf from RP-2 TLC plate): Nc1nc2c(ncn2COCCO)c(=O)[nH]1
0.99

Look up RP (Rf from RP-2 TLC plate): CN(C)C(=O)C(CCN1CCC(O)(c2ccc(Cl)cc2)CC1)(c1ccccc1)c1ccccc1 [loperamide]
0.75

Look up RP (Rf from RP-2 TLC plate): O=C(c1ccccc1)c1ccc2n1CCC2C(=O)O (stereo not drawn)
0.96

Look up RP (Rf from RP-2 TLC plate): O[C@@H]1CO[C@H]2[C@@H]1OC[C@@H]2O [isosorbide]
0.54

Look up RP (Rf from RP-2 TLC plate): CN(C)CCCN1c2ccccc2Sc2ccccc21
0.51

---

# Assay procedure: HPLC on IAM (immobilized artificial membrane) column, retention factor
# Type: physicochemical
# Stated conditions: logarithm of retention factor; IAM.PC.DD.2 column; phosphate buffer pH 7.4:acetonitrile 80:20
Readout label: logkIAM
Please respond with just the number, no unit label.

Consider the worked cases shown below.
INSERT INTO assay_data (compound, readout_label, reported) VALUES
  ('O=C(O)COCCN1CCN([C@H](c2ccccc2)c2ccc(Cl)cc2)CC1 [levocetrizine]', 'logkIAM', 0.58),
  ('Cc1nnc2n1-c1ccc(Cl)cc1C(c1ccccc1)=NC2 [alprazolam]', 'logkIAM', 0.50);

Look up logkIAM: NS(=O)(=O)c1cc(C2(O)NC(=O)c3ccccc32)ccc1Cl (stereo not drawn) [chlortalidone]
0.12

Look up logkIAM: CC(C)NCC(O)COc1cccc2ccccc12 (stereo not drawn) [propranolol]
1.45

Look up logkIAM: CN1CCN2c3ncccc3Cc3ccccc3C2C1 (stereo not drawn) [mirtazapine]
0.77

Look up logkIAM: CC(C)C[C@H]1C(=O)N2CCC[C@H]2[C@]2(O)O[C@](NC(=O)[C@@H]3C=C4c5cccc6[nH]c(Br)c(c56)C[C@H]4N(C)C3)(C(C)C)C(=O)N12 [bromocriptine]
1.10

Look up logkIAM: O=C1CN=C(c2ccccn2)c2cc(Br)ccc2N1 [bromazepam]
0.34

Look up logkIAM: OCCN1CCN(CC/C=C2/c3ccccc3Sc3ccc(Cl)cc32)CC1 [zuclopenthixol]
1.69

Look up logkIAM: COc1cc2nc(N3CCN(C(=O)C4COc5ccccc5O4)CC3)nc(N)c2cc1OC (stereo not drawn) [doxazosin]
-0.66

Look up logkIAM: CNC(=C[N+](=O)[O-])NCCSCc1ccc(CN(C)C)o1 [ranitidine]
-0.17

Look up logkIAM: CN(C)CCC[C@@]1(c2ccc(F)cc2)OCc2cc(C#N)ccc21 [escitalopram]
1.51

Look up logkIAM: OCCOCCN1CCN(C2=Nc3ccccc3Sc3ccccc32)CC1 [quetiapine]
1.23

Look up logkIAM: CCC[C@H](N[C@@H](C)C(=O)N1[C@H](C(=O)O)C[C@@H]2CCCC[C@@H]21)C(=O)OCC [perindopril]
-0.76

Look up logkIAM: CN[C@H]1CC[C@@H](c2ccc(Cl)c(Cl)c2)c2ccccc21 [sertraline]
1.63

Look up logkIAM: Cc1cncc(CN2CCC(=C3c4ccc(Cl)cc4CCc4cccnc43)CC2)c1 [rupatadine]
0.97

Look up logkIAM: CN(C)CCOC(c1ccccc1)c1ccccc1 [diphenhydramin]
0.56

Look up logkIAM: CNCCc1ccccn1 [betahistine]
-0.05

Look up logkIAM: C[C@]12CC[C@@H]3c4ccc(O)cc4CC[C@H]3[C@@H]1CCC2=O [estrone]
1.47

Look up logkIAM: O=C(O)C1N=C(c2ccccc2)c2cc(Cl)ccc2NC1=O (stereo not drawn) [clorazepate]
0.69

Look up logkIAM: CCOC(=O)C1=C(COCCN)NC(C)=C(C(=O)OC)C1c1ccccc1Cl (stereo not drawn) [amlodipine]
2.00

---

# Assay procedure: HPLC on IAM (immobilized artificial membrane) column, retention factor
# Format: physicochemical
# Stated conditions: IAM.PC.DD.2 column; 10 mM phosphate buffer pH 7.4:acetonitrile 80:20
Threshold 0.2. k(IAM) retention factor below it: 1 (yes). k(IAM) retention factor at it or above: 0 (no).

INSERT INTO results (compound, class_assignment) VALUES
  ('CCOc1ccc(/C=C2\NCCc3cc(OCC)c(OCC)cc32)cc1OCC', '0 (no)'),
  ('CN1CCN2c3ccccc3Cc3ccccc3C2C1 (stereo not drawn)', '0 (no)'),
  ('CN1CCC(=C2c3ccccc3C=Cc3ccccc32)CC1', '0 (no)'),
  ('CC(=O)Oc1ccccc1C(=O)O', '1 (yes)'),
  ('C[C@H]1COc2c(N3CCN(C)CC3)c(F)cc3c(=O)c(C(=O)O)cn1c23', '0 (no)');

hey, is k(IAM) retention factor for Fc1ccc([C@@H]2CCNC[C@H]2COc2ccc3c(c2)OCO3)cc1 lower than 0.2 or not?
0 (no)

hey, is k(IAM) retention factor for CCCCC(=O)N(Cc1ccc(-c2ccccc2-c2nnn[nH]2)cc1)[C@H](C(=O)O)C(C)C lower than 0.2 or not?
1 (yes)

---

# Assay procedure: Reversed-phase TLC on RP-2 silanized plates (Rf)
# Assay type: physicochemical
# Stated conditions: silica gel 60 RP-2 F254 silanized; water:methanol:acetonitrile 60:20:20, ammonium acetate pH 7.4
Readout label: RP (Rf from RP-2 TLC plate)
Please respond with just the number, no unit label.

INSERT INTO assay_data (compound, readout_label, reported) VALUES
  ('CN[C@H]1CC[C@@H](c2ccc(Cl)c(Cl)c2)c2ccccc21', 'RP (Rf from RP-2 TLC plate)', 0.49);

Look up RP (Rf from RP-2 TLC plate): COC(=O)[C@@H]1CC2=CC(=O)CC[C@]2(C)[C@@]23O[C@@H]2C[C@@]2(C)[C@@H](CC[C@@]24CCC(=O)O4)[C@H]13
0.84

Look up RP (Rf from RP-2 TLC plate): OC(CCN1CCCCC1)(c1ccccc1)C1CC2C=CC1C2 (centres unmarked)
0.87

Look up RP (Rf from RP-2 TLC plate): CC[C@H]1OC(=O)[C@H](C)[C@@H](O[C@H]2C[C@@](C)(OC)[C@@H](O)[C@H](C)O2)[C@H](C)[C@@H](O[C@@H]2O[C@H](C)C[C@H](N(C)C)[C@H]2O)[C@](C)(O)C[C@@H](C)/C(=N\OCOCCOC)[C@H](C)[C@@H](O)[C@]1(C)O
0.8

Look up RP (Rf from RP-2 TLC plate): CC[C@@H](CO)NCCN[C@@H](CC)CO
0.97

Look up RP (Rf from RP-2 TLC plate): NC(=O)N1c2ccccc2C=Cc2ccccc21 [carbamazepine]
0.83

Look up RP (Rf from RP-2 TLC plate): CSc1ccc2c(c1)N(CCC1CCCCN1C)c1ccccc1S2 (centres unmarked)
0.4

Look up RP (Rf from RP-2 TLC plate): CCCc1nn(C)c2c(=O)[nH]c(-c3cc(S(=O)(=O)N4CCN(C)CC4)ccc3OCC)nc12
0.77
